So I've got a bunch of compounds here, and I need their EC (150% of control) values.
Test system: human embryonic stem cell derived neural stem cells (NSCs)
test.description: Neural Stem Cell Proliferation Assay (neurogenesis assay, ATP levels by CellTiterGlo)
Format: cell-based
experimental.setup: 96 h, compound concentration at which 150% activity of control (100%) is reached, NSC proliferation by ATP level after 4 days incubation, dose response 8 μM to 8 nM
Express it in µM; write the number only.

## Task Return reported EC (150% of control); argument: `Cc1c2n(c3c(-c4ccc([N+](=O)[O-])cc4)cc(F)cc13)CCNC2=O`
## Result 0.01

## Task What value of EC (150% of control) has been reported for the following compound? `Cc1c2n(c3c(-c4ccc(Cl)cc4Cl)cc(C#N)cc13)CCNC2=O`
## Result 0.002

## Task Would you kindly share the measured EC (150% of control) for `Cc1ccc(-c2cc(F)cc3cc4n(c23)CCNC4=O)cc1` ?
## Result 0.017

## Task Look up EC (150% of control): `N#Cc1cc(-c2ccc(F)cc2F)c2c(c1)cc1n2CCNC1=O`
## Result 0.01

## Task What value of EC (150% of control) has been recorded for this entry: `COc1cc(-c2ccc(F)c(F)c2)c2c(c1)cc1n2CCNC1=O`
## Result 1.24

## Task What does the data say about its EC (150% of control)? Entry: `Cc1c2n(c3c(-c4ccc(F)c(F)c4)cc(F)cc13)CCNC2=O`
## Result 0.12

## Task # lookup: EC (150% of control) of `Cc1c2n(c3c(-c4ccccc4)cc(C#N)cc13)CCNC2=O`
## Result 0.062

## Task Record request: EC (150% of control) value, item `Cc1c2n(c3c(-c4ccc(Cl)nc4)cc(F)cc13)CCNC2=O`
## Result 0.081

---

Threshold check on melting point: at or above 300 °C gives met, strictly below gives not met.

## Task State whether the measured melting point reaches 300 °C, counting equality as reaching it, for `N#Cc1cc(-c2ccc(Cl)nc2)c2c(c1)cc1n2CCCNC1=O`
## Result not met

## Task Is reported melting point greater than or equal to 300 °C here: `O=C1NCCn2c1cc1cc(Cl)cc(-c3ccc(Cl)cc3)c12`
## Result met

## Task Can `Cc1c2n(c3c(-c4ccc(F)nc4)cc(Cl)cc13)CCNC2=O` be said to have melting point at or above 300 °C?
## Result not met

## Task Hi, just wondering whether `O=C1NCCn2c1cc1cc(F)cc(-c3ccccc3)c12` shows melting point of 300 °C or higher.
## Result not met

## Task Is the recorded value of melting point equal to or greater than 300 °C for this molecule? `Cc1c2n(c3c(-c4ccc([N+](=O)[O-])cc4)cc(Cl)cc13)CCNC2=O`
## Result met

## Task Hello, I need to know if `N#Cc1cc(-c2cccnc2)c2c(c1)cc1n2CCCNC1=O` has measured melting point not below 300 °C. Thanks!
## Result not met

---

Test system: human embryonic stem cell derived neural stem cells (NSCs)
test.description: Neural Stem Cell Proliferation Assay (neurogenesis assay, ATP levels by CellTiterGlo)
Assay type: cell-based
experimental.setup: 96 h, compound concentration at which 150% activity of control (100%) is reached, NSC proliferation by ATP level after 4 days incubation, dose response 8 μM to 8 nM
Would you kindly list EC (150% of control) for each of these molecules?
Give the number; µM is assumed, so skip it.

## Task Entry `N#Cc1cc(-c2ccc(Cl)cc2Cl)c2c(c1)cc1n2CCNC1=O` , system human embryonic stem cell derived neural stem cells (NSCs): what EC (150% of control) was measured?
## Result 0.034

## Task Hello, I am looking for reported EC (150% of control) with human embryonic stem cell derived neural stem cells (NSCs) for `N#Cc1ccc(-c2cc(C#N)cc3cc4n(c23)CCCNC4=O)cc1` . Could you help?
## Result 0.22

## Task Record `N#Cc1cc(-c2ccc(Cl)cc2)c2c(c1)cc1n2CCCNC1=O` : what is its EC (150% of control) with human embryonic stem cell derived neural stem cells (NSCs)?
## Result 0.14

## Task Recorded EC (150% of control) for `Cc1c2n(c3c(-c4ccc(Cl)cc4F)cc(F)cc13)CCNC2=O` with human embryonic stem cell derived neural stem cells (NSCs), please?
## Result 0.01
